Test system: Malassezia furfur
Test: Minimum Inhibitory Concentration (MIC) according to DIN 58 940
Type: cell-based
Conditions: Malasse zia furfur
PROPERTY_NAME: MIC

Here's what some known entries look like.
MOLECULE	MIC
CCCCCCCCC(O)COC1COC2C(O)COC12 (centres unmarked) [Compound (3)]	≤2500 ppm
CCCCCCCCCCC(O)COC1COC2C(O)COC12 (centres unmarked) [Compound (4)]	≤20 ppm
CCCCCCCCOC1COC2C(OCCCCCCCC)COC12 (centres unmarked) [Comperative compound (1), reference compound]	>10,000 ppm
CCCCCCCCCCCCOC1COC2C(O)COC12 (centres unmarked) [Compound (2)]	2,500 ppm

Give the measured MIC of CCCCCCCCOC1COC2C(O)COC12 (centres unmarked) [Compound (1)] .
<1,000 ppm
